- assay.overview: Systemic toxicity, subcutaneous injection
- Assay type: in vivo, rat
- recorded.conditions: Sprague-Dawley, rat, in vivo, sc
Provide the reported LD50 at 24 h of each item.
Reply with just the number (in mg/kg).

Note to self: LD50 at 24 h recorded for CCCCN1CCN(C(C)C(=O)Nc2c(C)csc2C(=O)OC)CC1 (centres unmarked) was 424

Note to self: LD50 at 24 h recorded for CCCNC(C)C(=O)Nc1c(C)csc1C(=O)OC (centres unmarked) [AT, reference compound] was 598

----------
- assay.overview: Pharmacokinetics after subcutaneous injection
- Assay type: in vivo
- recorded.conditions: male, Sprague-Dawley, rat, plasma, sc, 62.3 mmol/L
parameter.measured: AUC(0-t) (ng·h/mL)
Reply with just the number (in ng·h/mL).

Note to self: AUC(0-t) recorded for CCCCN1CCN(C(C)C(=O)Nc2c(C)csc2C(=O)OC)CC1 (stereo not shown) [AT-17] was 5550
